experimental target: Survivin L64A mutant (human, UniProt O15392 1-142, L64A)
Sequence (O15392 whole entry L64A): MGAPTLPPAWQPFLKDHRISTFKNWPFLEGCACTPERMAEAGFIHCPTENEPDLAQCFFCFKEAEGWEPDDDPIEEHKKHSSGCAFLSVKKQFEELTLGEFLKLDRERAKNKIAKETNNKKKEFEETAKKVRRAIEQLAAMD
assay: ITC
Where no end group is shown, it is not given here. [ ]: non-standard residue; d: D form. pT = C[C@@H](OP(=O)(O)O)[C@H](N)C(=O)O
value type: Kd

[[record]]
binder = "AR[pT]KQTARKSTGGKA (peptide, UniProt P68431 2-16, looked up) [H3(1–15)T3ph peptide]"
value_type = "Kd"
result = "> 200 µM"

